minimal effective concentration values by entry
Tested on: third stage larvae of Haemonchus contortus
protocolDetails: Haemonchus contortus, Larvae Stage 3 (HcL3) In Vitro Assay
Type: cell-based
testSettings: Haemonchus contortus, 96 h, read-out: HcL3 MED, Minimum Effective Dose, H. contortus third stage larvae, approximately 96 hours
Lab book: enter the figure in µM, no units written.

CC(C)C[C@H]1C(=O)O[C@H](Cc2ccc(Cc3cncnc3C(F)(F)F)cc2)C(=O)N(C)[C@@H](CC(C)C)C(=O)O[C@H](C)C(=O)N(C)[C@@H](CC(C)C)C(=O)O[C@H](Cc2ccc(Cc3cncnc3C(F)(F)F)cc2)C(=O)N(C)[C@@H](CC(C)C)C(=O)O[C@H](C)C(=O)N1C : 0.55
Cc1ccsc1Cc1ccc(C[C@H]2OC(=O)[C@H](CC(C)C)N(C)C(=O)[C@@H](C)OC(=O)[C@H](CC(C)C)N(C)C(=O)[C@@H](Cc3ccc(Cc4sccc4C)cc3)OC(=O)[C@H](CC(C)C)N(C)C(=O)[C@@H](C)OC(=O)[C@H](CC(C)C)N(C)C2=O)cc1 : 1.8
CCn1nccc1Cc1ccc(C[C@H]2OC(=O)[C@H](CC(C)C)N(C)C(=O)[C@@H](C)OC(=O)[C@H](CC(C)C)N(C)C(=O)[C@@H](Cc3ccc(Cc4ccnn4CC)cc3)OC(=O)[C@H](CC(C)C)N(C)C(=O)[C@@H](C)OC(=O)[C@H](CC(C)C)N(C)C2=O)cc1 : 1

Readout minimal effective concentration for CC(C)C[C@H]1C(=O)O[C@H](Cc2ccc(Cc3cocn3)cc2)C(=O)N(C)[C@@H](CC(C)C)C(=O)O[C@H](C)C(=O)N(C)[C@@H](CC(C)C)C(=O)O[C@H](Cc2ccc(Cc3cocn3)cc2)C(=O)N(C)[C@@H](CC(C)C)C(=O)O[C@H](C)C(=O)N1C , test system third stage larvae of Haemonchus contortus, was 1
